This section presents molecules with their documented IC50 values.
# Assayed Target: JAK3 (Homo sapiens, UniProt P52333)
# Sequence (P52333 whole entry): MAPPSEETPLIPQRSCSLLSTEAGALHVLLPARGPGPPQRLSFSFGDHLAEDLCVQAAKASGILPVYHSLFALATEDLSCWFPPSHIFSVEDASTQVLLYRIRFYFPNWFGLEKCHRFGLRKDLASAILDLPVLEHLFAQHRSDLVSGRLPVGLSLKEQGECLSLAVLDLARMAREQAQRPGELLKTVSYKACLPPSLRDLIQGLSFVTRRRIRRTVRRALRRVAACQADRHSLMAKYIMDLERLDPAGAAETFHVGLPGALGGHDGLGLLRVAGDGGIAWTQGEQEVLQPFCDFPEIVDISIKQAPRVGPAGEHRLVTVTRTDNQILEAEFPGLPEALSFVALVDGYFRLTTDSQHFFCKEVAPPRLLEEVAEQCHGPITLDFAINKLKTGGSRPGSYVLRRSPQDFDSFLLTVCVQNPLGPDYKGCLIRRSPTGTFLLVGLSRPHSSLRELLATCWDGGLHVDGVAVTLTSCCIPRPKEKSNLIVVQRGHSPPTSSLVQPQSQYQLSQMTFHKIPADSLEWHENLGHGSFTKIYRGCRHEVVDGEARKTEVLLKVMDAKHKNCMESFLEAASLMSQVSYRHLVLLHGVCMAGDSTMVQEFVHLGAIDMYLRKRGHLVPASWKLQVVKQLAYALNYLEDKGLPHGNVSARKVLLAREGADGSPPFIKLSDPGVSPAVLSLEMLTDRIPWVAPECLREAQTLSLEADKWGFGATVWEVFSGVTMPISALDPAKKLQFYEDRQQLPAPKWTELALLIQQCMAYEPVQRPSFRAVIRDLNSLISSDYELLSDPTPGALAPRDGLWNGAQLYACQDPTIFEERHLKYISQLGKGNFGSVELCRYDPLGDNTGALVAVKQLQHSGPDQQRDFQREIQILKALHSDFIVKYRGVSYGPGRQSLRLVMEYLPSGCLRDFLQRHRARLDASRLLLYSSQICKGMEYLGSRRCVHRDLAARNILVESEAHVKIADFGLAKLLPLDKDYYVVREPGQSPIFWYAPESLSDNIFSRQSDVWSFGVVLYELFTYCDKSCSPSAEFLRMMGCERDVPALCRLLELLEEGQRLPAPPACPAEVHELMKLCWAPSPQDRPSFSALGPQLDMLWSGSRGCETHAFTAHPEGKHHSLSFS
# Procedure Text: Inhibition of a panel of kinases, in vitro HotSpot kinase assay: JAK3
# Format: biochemical
# Condition Context: D-compounds panel data; 1 μM ATP; read-out: IC50 JAK3

                                   molecule  measurement_kind  measured_result
0  C[C@@H]1[C@H](NC(=O)c2ccc(C3CC3)cc2)CCCN1c1cnc(C(N)=O)c(Nc2cnn(C(F)F)c2)n1              IC50       > 10000 nM
1  CC(=O)N1CCN(c2ccc(Nc3nc(N4CCC[C@@H](NC(=O)c5ccc(C6CC6)cc5)[C@H]4C)cnc3C(N)=O)cc2)CC1              IC50   100 to 1000 nM
2  CN1CCN(C(=O)c2ccc(Nc3nc(N[C@H]4CC[C@@H](NC(=O)c5ccc(C6CC6)cc5F)CC4)cnc3C(N)=O)cc2)CC1              IC50     10 to 100 nM

Report the value of IC50 obtained on JAK3 (Homo sapiens, UniProt P52333) for `C[C@@H]1CC[C@H](NC(=O)c2ccc(C3CC3)cc2)CN1c1cnc(C(N)=O)c(Nc2ccc(N3CCN(C)CC3)c(F)c2)n1` . 1000 to 10000 nM

Give IC50; test system JAK3 (Homo sapiens, UniProt P52333); molecule `C[C@H]1CC[C@@H](NC(=O)c2ccc(C(C)(C)O)cc2)CN1c1nnc(C(N)=O)c(Nc2cnn(C)c2)n1` 100 to 1000 nM

---

This section presents compounds with their documented pIC50 values.
# Assayed Target: EGFR (Homo sapiens)
# Sequence (P00533 25-1210): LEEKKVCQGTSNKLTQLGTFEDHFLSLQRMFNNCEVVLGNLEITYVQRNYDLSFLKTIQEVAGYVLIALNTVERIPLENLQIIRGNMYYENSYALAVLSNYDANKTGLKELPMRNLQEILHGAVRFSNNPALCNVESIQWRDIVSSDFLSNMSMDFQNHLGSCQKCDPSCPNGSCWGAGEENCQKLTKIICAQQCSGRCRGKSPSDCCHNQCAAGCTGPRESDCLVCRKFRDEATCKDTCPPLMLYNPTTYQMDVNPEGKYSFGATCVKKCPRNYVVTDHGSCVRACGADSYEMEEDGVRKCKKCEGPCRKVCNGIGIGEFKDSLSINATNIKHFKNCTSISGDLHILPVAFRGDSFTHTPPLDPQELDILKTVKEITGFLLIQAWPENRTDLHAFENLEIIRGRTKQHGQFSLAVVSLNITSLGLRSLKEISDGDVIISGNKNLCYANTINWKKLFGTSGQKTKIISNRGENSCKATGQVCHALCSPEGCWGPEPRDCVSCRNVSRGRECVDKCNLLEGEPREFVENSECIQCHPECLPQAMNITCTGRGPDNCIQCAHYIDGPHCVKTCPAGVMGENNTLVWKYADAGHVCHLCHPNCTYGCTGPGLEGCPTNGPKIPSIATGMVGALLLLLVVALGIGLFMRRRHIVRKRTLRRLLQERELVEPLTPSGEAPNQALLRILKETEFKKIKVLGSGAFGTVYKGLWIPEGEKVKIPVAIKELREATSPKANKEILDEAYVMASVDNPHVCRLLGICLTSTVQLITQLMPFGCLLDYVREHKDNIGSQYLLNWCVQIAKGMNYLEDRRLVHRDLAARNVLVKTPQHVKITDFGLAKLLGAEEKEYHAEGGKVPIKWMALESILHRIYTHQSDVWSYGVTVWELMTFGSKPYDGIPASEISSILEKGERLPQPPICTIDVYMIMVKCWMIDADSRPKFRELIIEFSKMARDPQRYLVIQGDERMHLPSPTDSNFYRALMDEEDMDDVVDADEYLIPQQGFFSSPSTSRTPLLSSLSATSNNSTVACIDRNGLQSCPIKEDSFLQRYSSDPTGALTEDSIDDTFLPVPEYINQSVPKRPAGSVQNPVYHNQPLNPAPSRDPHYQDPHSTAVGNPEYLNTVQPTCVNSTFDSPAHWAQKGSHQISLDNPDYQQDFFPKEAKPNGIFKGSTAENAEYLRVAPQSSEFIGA
# Procedure Text: Inhibition of a panel of kinases, in vitro HotSpot kinase assay: EGFR
# Assay type: biochemical
# Condition Context: Table 15, C compounds; 1 μM ATP
pIC50: −log10 of the molar value.

Example cases with answers are listed next.
                               smiles_entry  measurement_kind  measured_result
0  C=CC(=O)N1CCC[C@@H](N(C)c2cnc(C(N)=O)c(Nc3ccc(C4(C)CCN(C5CCCC5)CC4)cc3)n2)C1             pIC50           ≥ 8.00
1  C=CC(=O)N1CCC[C@@H](Nc2cnc(C(N)=O)c(Nc3ccc(C4CCN(C5CCCC5)CC4)cc3)n2)C1             pIC50           ≥ 8.00
2  C=CC(=O)N1CCC[C@@H](Nc2nnc(C(N)=O)c(Nc3cccc(-c4ncccn4)c3)n2)C1             pIC50     7.00 to 8.00
3  C=CC(=O)N1CCC[C@@H](Nc2nnc(C(N)=O)c(Nc3cccc(-n4nccn4)c3)n2)C1             pIC50     7.00 to 8.00
4  C=CC(=O)N1CC[C@@H](N(C)c2cnc(C(N)=O)c(Nc3ccc(C4CCN(C5CCCC5)CC4)cc3)n2)C1             pIC50     7.00 to 8.00

Hello, please tell me recorded pIC50 for this one: `C=CC(=O)N1CCC[C@@H](Nc2nnc(C(N)=O)c(Nc3ccc(N4CCOCC4=O)cc3)n2)C1` 7.00 to 8.00

Report pIC50 for `C=CC(=O)N1CCC[C@@H](Nc2nnc(C(N)=O)c(Nc3ccc(S(C)(=O)=O)cc3)n2)C1` ≥ 8.00

Provide one value: measured pIC50 of `C=CC(=O)N1CCC[C@@H](Nc2nnc(C(N)=O)c(Nc3ccc(-c4ncco4)cc3)n2)C1` ≥ 8.00

---

# Assayed Target: ITK (Homo sapiens)
# Procedure Text: Inhibition of a panel of kinases, in vitro HotSpot kinase assay: ITK
# Assay type: biochemical
# Condition Context: D-compounds panel data; 1 μM ATP
IC50 values for the compounds below.

Below: 3 compounds and their reported IC50.
>>> df
                               smiles_entry  measured_result
0  C[C@@H]1[C@H](NC(=O)c2cnn(C(C)(C)C)c2)CCCN1c1cnc(C(N)=O)c(Nc2cnn(C)c2)n1   100 to 1000 nM
1  C[C@@H]1[C@H](NC(=O)c2cc(C3CC3)n(C)n2)CCCN1c1cnc(C(N)=O)c(Nc2cnn(C)c2)n1   100 to 1000 nM
2  C[C@@H]1[C@H](NC(=O)c2ccc3nccn3c2)CCCN1c1cnc(C(N)=O)c(Nc2cnn(C)c2)n1     10 to 100 nM

Could you please provide reported IC50 for `C[C@@H]1[C@H](NC(=O)c2ccc(C3CC3)cc2)CCCN1c1cnc(C(N)=O)c(Nc2cn(C)nc2C(F)(F)F)n1` ? Thanks! > 10000 nM

Determine from records and report IC50 for `C[C@@H]1[C@H](N2CCN(C)C2=O)CCCN1c1cnc(C(N)=O)c(Nc2ccc(C3(C)CCN(C4CC4)CC3)cc2)n1` 10 to 100 nM

Give IC50 for the following compound: `C[C@@H]1[C@H](NC(=O)c2ccc(C3(C(F)(F)F)CC3)cc2)CCCN1c1cnc(C(N)=O)c(Nc2cnn(C)c2)n1` 1000 to 10000 nM

Give the measured IC50 for `C[C@@H]1[C@H](NC(=O)c2ccc(C3CC3)nc2)CCCN1c1cnc(C(N)=O)c(Nc2cnn(C)c2)n1` 100 to 1000 nM

Tell me its IC50 given `C[C@H]1CC[C@@H](NC(=O)c2ccc(C3CC3)cc2)CN1c1cnc(C(N)=O)c(Nc2ccc(N3CCN(C)CC3)c(F)c2)n1` as the entry. 100 to 1000 nM

Complete the entry with IC50 for `C[C@@H]1[C@H](NC(=O)c2ccc(C3CC3)cc2)CCCN1c1cnc(C(N)=O)c(Nc2cnn(C3CCC(F)(F)CC3)c2)n1` 1000 to 10000 nM

Give a short answer stating reported IC50 for `C[C@@H]1[C@H](NC(=O)c2ccc(C3CC3)cc2)CCCN1c1cnc(C(N)=O)c(Nc2ccc(OC3CCN(CC(F)(F)F)CC3)cc2)n1` . 1000 to 10000 nM

Tell me its IC50 given `C[C@@H]1[C@H](NC(=O)c2ncc(C3CC3)cn2)CCCN1c1cnc(C(N)=O)c(Nc2cnn(C)c2)n1` as the entry. 100 to 1000 nM

Tell us which IC50 value is on record for `C[C@@H]1[C@H](NC(=O)c2ccc3[nH]cnc3c2)CCCN1c1cnc(C(N)=O)c(Nc2cnn(C)c2)n1` 100 to 1000 nM

Recall and state the measured IC50 for `C[C@@H]1[C@H](NC(=O)c2ccc(C3CC3)cc2)CCCN1c1nnc(C(N)=O)c(Nc2cnn(C)c2)n1` . 100 to 1000 nM

---

# Assayed Target: UniProtKB P42680
# Sequence (P42680 whole entry): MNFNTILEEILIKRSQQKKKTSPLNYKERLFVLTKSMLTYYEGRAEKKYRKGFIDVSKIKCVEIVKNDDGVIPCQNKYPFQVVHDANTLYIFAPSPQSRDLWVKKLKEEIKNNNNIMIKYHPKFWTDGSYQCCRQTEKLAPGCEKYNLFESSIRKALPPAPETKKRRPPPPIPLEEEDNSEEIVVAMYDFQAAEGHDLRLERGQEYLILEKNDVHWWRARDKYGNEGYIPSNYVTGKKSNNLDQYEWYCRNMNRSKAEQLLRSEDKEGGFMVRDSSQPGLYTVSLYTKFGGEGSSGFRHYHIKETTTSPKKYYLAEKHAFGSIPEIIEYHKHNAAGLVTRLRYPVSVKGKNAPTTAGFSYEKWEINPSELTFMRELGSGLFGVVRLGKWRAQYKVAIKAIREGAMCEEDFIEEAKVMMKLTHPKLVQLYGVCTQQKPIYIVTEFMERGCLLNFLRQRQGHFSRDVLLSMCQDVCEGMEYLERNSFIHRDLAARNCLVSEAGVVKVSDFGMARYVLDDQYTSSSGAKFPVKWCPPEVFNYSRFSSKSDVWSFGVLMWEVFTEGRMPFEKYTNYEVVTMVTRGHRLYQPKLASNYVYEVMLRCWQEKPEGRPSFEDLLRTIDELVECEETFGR
# Procedure Text: Inhibition of a panel of kinases, in vitro HotSpot kinase assay: TEC
# Format: biochemical
# Condition Context: D-compounds panel data; 1 μM ATP
pIC50: −log10 of the molar value.
Measurement Kind: pIC50

Example entries begin here.
>>> df
                                   compound  measured_result
0  Cc1cc(Nc2nc(N3CCC[C@H](NC(=O)N(C)C)[C@@H]3CO)cnc2C(N)=O)sn1           < 5.00
1  Cn1cc(Nc2nc(N3C4CCC(NC(=O)c5ccc(C6CC6)cc5)C3CC4)cnc2C(N)=O)cn1 (single isomer, unassigned) [Example D-202]     6.00 to 7.00

For the compound `C[C@@H]1[C@H](NC(=O)N(C)C)CCCN1c1cnc(C(N)=O)c(Nc2ccc(CN3CCN(C)CC3)cc2)c1` , report pIC50. < 5.00

State its pIC50 for this compound: `Cc1cc(Nc2nc(N3C[C@H](NC(=O)c4ccc(C5CC5)cc4F)CC[C@H]3C)cnc2C(N)=O)sn1` < 5.00

---

# Assayed Target: ITK (Homo sapiens, UniProt Q08881)
# Sequence (Q08881 whole entry): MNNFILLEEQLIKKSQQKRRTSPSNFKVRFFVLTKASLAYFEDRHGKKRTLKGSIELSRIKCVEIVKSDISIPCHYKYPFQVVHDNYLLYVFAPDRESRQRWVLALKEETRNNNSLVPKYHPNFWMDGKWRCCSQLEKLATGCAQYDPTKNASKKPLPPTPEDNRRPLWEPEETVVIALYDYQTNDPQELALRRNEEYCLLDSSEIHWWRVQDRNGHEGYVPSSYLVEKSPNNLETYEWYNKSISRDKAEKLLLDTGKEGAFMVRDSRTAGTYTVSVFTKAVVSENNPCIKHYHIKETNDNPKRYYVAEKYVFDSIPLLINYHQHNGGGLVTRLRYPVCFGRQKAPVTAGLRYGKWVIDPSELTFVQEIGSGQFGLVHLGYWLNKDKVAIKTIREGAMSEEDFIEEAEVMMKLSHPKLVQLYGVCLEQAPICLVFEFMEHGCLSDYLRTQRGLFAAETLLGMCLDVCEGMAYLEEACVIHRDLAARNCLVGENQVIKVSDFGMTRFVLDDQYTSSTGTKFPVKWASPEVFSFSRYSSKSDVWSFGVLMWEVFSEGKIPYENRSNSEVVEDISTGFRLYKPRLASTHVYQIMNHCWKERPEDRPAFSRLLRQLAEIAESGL
# Procedure Text: Inhibition of a panel of kinases, in vitro HotSpot kinase assay: ITK
# Format: biochemical
# Condition Context: Table 15, C compounds; 1 μM ATP
pIC50: −log10 of the molar value.
The reader will find reported pIC50 values listed item by item below.

For `C=CC(=O)N1CCC[C@@H](Nc2nnc(C(N)=O)c(Nc3ccc4c(cnn4CC)c3)n2)C1` , write its pIC50. ≥ 8.00

Give reported pIC50 value for `C=CC(=O)N1CCC[C@@H](Nc2cnc(C(N)=O)c(Nc3ccc(C4CCN(C5CCCC5)CC4)cc3)n2)C1` ≥ 8.00

Look up pIC50 of `C=CC(=O)N1CCC[C@@H](Nc2nnc(C(N)=O)c(Nc3ccc(-n4cncn4)cc3)n2)C1` and report it. 7.00 to 8.00

Give the measured pIC50 for `C=CC(=O)N1CCCC[C@H](Nc2nnc(C(N)=O)c(Nc3ccc(C(C)C)cc3)n2)C1` 6.00 to 7.00

Return value of pIC50 for input `C=CC(=O)N1CCC[C@@H](Nc2nnc(C(N)=O)c(Nc3ccc(Cn4cncn4)cc3)n2)C1` , no commentary. ≥ 8.00

State, in one line, measured pIC50 of `C=CC(=O)N1CCC[C@@H](Nc2nnc(C(N)=O)c(Nc3ccc(C)cc3)n2)C1` 7.00 to 8.00

Tell me its pIC50 given C=CC(=O)N1CCC[C@@H](Nc2nnc(C(N)=O)c(Nc3ccc(C(C)C)cc3)n2)[C@@H]1C (racemic) as the entry. 7.00 to 8.00
